The origin of these recorded values is paper PMC10566475.

molecular target: interaction between the human Keap1 Kelch domain and an Nrf2-ETGE peptide (Homo sapiens, UniProt Q14145); construct: 1nM purified human Keap1 Kelch domain (A321-T609) fused with N-terminal 6x His-tag; made in house; experiment: Keap1-Nrf2 TR-FRET (HTRF) assay; format: binding; settings: Table 1; geometric mean ± sd of at least 3 independent repeats unless stated; read-out: TR-FRET IC50
Sequence (Q14145 321-609): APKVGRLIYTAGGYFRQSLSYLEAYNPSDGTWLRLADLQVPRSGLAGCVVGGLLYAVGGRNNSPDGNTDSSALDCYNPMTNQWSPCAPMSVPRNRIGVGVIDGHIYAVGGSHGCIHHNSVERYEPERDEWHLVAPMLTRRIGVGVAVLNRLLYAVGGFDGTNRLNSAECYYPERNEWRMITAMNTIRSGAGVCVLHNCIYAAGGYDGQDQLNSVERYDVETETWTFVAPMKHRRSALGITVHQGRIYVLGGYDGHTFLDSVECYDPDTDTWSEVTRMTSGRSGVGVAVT
MEASURED PARAMETER: IC50 (nM)
# number only, unit nM dropped from output

stdin: Recorded IC50 of Ac-LQLDPETGEFL-NH2 [reference compound] , please.
stdout: 5.3

###

biological target: human Keap1 Kelch domain (A321-T609) (Homo sapiens); construct: human Keap1 Kelch domain (A321-T609) fused with N-terminal 6x His-tag; 6xHis (N); made in house; assay: Surface plasmon resonance (SPR) direct binding assay, immobilised Keap1 Kelch domain; settings: Table 1; single cycle kinetics, 1:1 Langmuir model
*1 amine or outer side, *2 acyl side, *3 side chain or, on linkers, in order; H or OH if unused. Where a SMILES comes first, the peptide text is derived from it. Bridges are numbered along the chain shown (N, C = ends). X1 = CN(CC(=O)O)c1nc(CC[*:1])cc(CC[*:2])n1; CH2COCH2 = O=C(C[*:1])C[*:2]; CH2 = C([*:1])[*:2]
MEASURED PARAMETER: koff (s⁻¹)
# number only, unit s⁻¹ dropped from output

stdin: Please provide the recorded koff for CC(=O)N[C@@H](CC(C)C)C(=O)N[C@@H](CCC(N)=O)C(=O)N[C@H]1CSCC(=O)CSC[C@@H](C(=O)N[C@@H](CC(C)C)C(N)=O)NC(=O)[C@H](CCC(=O)O)NC(=O)CNC(=O)[C@H]([C@@H](C)O)NC(=O)[C@H](CCC(=O)O)NC(=O)[C@@H]2CCCN2C(=O)[C@H](CC(=O)O)NC1=O [Peptide P2-B] (Ac-LQCDPETGECL-NH2; linker 3-10 via CH2COCH2) , tested on human Keap1 Kelch domain (A321-T609) (Homo sapiens).
stdout: 0.028

stdin: Please provide the recorded koff for CC(=O)N[C@H]1CSCSC[C@@H](C(=O)N[C@@H](CC(C)C)C(N)=O)NC(=O)[C@H](CCC(=O)O)NC(=O)CNC(=O)[C@H]([C@@H](C)O)NC(=O)[C@H](CCC(=O)O)NC(=O)[C@@H]2CCCN2C(=O)[C@H](CC(=O)O)NC(=O)[C@H](CC(C)C)NC(=O)[C@H](CCC(N)=O)NC1=O [Peptide P1-A] (Ac-CQLDPETGECL-NH2; linker 1-10 via CH2) , tested on human Keap1 Kelch domain (A321-T609) (Homo sapiens).
stdout: 0.0073

stdin: Please provide the recorded koff for CC(=O)N[C@H]1CSCCc2cc(nc(N(C)CC(=O)O)n2)CCSC[C@@H](C(=O)N[C@@H](CC(C)C)C(N)=O)NC(=O)[C@H](CCC(=O)O)NC(=O)CNC(=O)[C@H]([C@@H](C)O)NC(=O)[C@H](CCC(=O)O)NC(=O)[C@@H]2CCCN2C(=O)[C@H](CC(=O)O)NC(=O)[C@H](CC(C)C)NC(=O)[C@H](CCC(N)=O)NC1=O [Peptide P1-D] (Ac-CQLDPETGECL-NH2; linker 1-10 via X1) , tested on human Keap1 Kelch domain (A321-T609) (Homo sapiens).
stdout: 0.0047

###

target: human Keap1 Kelch domain (A321-T609) (Homo sapiens, UniProt Q14145); construct: human Keap1 Kelch domain (A321-T609) fused with N-terminal 6x His-tag; 6xHis (N); made in house; assay: Surface plasmon resonance (SPR) direct binding assay, immobilised Keap1 Kelch domain; conditions: Table 1; geometric mean ± sd of at least 3 independent repeats unless stated; 20°C
Sequence (Q14145 321-609): as above
*1 amine or outer side, *2 acyl side, *3 side chain or, on linkers, in order; H or OH if unused. Where a SMILES comes first, the peptide text is derived from it. Bridges are numbered along the chain shown (N, C = ends). mXylylene = c1cc(C[*:1])cc(C[*:2])c1; CH2COCH2 = O=C(C[*:1])C[*:2]
MEASURED PARAMETER: pKd
When answering, recall that pKd equals minus log10 of the concentration in mol/L, and write that number alone.

stdin: Recorded pKd of CC(=O)N[C@@H](CS)C(=O)N[C@@H](CC(C)C)C(=O)N[C@@H](CCC(N)=O)C(=O)N[C@@H](CC(C)C)C(=O)N[C@@H](CC(=O)O)C(=O)N1CCC[C@H]1C(=O)N[C@@H](CCC(=O)O)C(=O)N[C@H](C(=O)NCC(=O)N[C@@H](CCC(=O)O)C(=O)N[C@@H](CS)C(=O)N[C@@H](CC(C)C)C(N)=O)[C@@H](C)O [Peptide P3] (Ac-CLQLDPETGECL-NH2) , please.
stdout: 7.72

stdin: Recorded pKd of CC(=O)N[C@@H](CC(C)C)C(=O)N[C@@H](CCC(N)=O)C(=O)N[C@H]1CSCc2cccc(c2)CSC[C@@H](C(=O)N[C@@H](CC(C)C)C(N)=O)NC(=O)[C@H](CCC(=O)O)NC(=O)CNC(=O)[C@H]([C@@H](C)O)NC(=O)[C@H](CCC(=O)O)NC(=O)[C@@H]2CCCN2C(=O)[C@H](CC(=O)O)NC1=O [Peptide P2-C] (Ac-LQCDPETGECL-NH2; linker 3-10 via mXylylene) , please.
stdout: 7.44

stdin: Recorded pKd of CC(=O)N[C@H]1CSCC(=O)CSC[C@@H](C(=O)N[C@@H](CC(C)C)C(N)=O)NC(=O)[C@H](CCC(=O)O)NC(=O)CNC(=O)[C@H]([C@@H](C)O)NC(=O)[C@H](CCC(=O)O)NC(=O)[C@@H]2CCCN2C(=O)[C@H](CC(=O)O)NC(=O)[C@H](CC(C)C)NC(=O)[C@H](CCC(N)=O)NC1=O [Peptide P1-B] (Ac-CQLDPETGECL-NH2; linker 1-10 via CH2COCH2) , please.
stdout: 7.57

###

Record form. Attribute: koff. Fill in for each entry.
molecular target: human Keap1 Kelch domain (A321-T609) (Homo sapiens); construct: human Keap1 Kelch domain (A321-T609) fused with N-terminal 6x His-tag; 6xHis (N); made in house; assay: Surface plasmon resonance (SPR) direct binding assay, immobilised Keap1 Kelch domain; settings: Table 1; single cycle kinetics, 1:1 Langmuir model
*1 amine or outer side, *2 acyl side, *3 side chain or, on linkers, in order; H or OH if unused. Where a SMILES comes first, the peptide text is derived from it. Bridges are numbered along the chain shown (N, C = ends). X1 = CN(CC(=O)O)c1nc(CC[*:1])cc(CC[*:2])n1; mXylylene = c1cc(C[*:1])cc(C[*:2])c1; CH2COCH2 = O=C(C[*:1])C[*:2]
Please append the unit to your numeric answer.

stdin: Recorded koff of CC(=O)N[C@H]1Cn2cc(nn2)-c2cc(C(=O)O)cc(c2)-c2cn(nn2)C[C@@H](C(=O)N[C@@H](CC(C)C)C(N)=O)NC(=O)[C@H](CCC(=O)O)NC(=O)CNC(=O)[C@H]([C@@H](C)O)NC(=O)[C@H](CCC(=O)O)NC(=O)[C@@H]2CCCN2C(=O)[C@H](CC(=O)O)NC(=O)[C@H](CC(C)C)NC(=O)[C@H](CCC(N)=O)NC(=O)[C@H](CC(C)C)NC1=O [Peptide P3Aza-E] , please.
stdout: 0.0054 s⁻¹

stdin: Recorded koff of CC(=O)N[C@@H](CC(C)C)C(=O)N[C@@H](CCC(N)=O)C(=O)N[C@H]1CSCCc2cc(nc(N(C)CC(=O)O)n2)CCSC[C@@H](C(=O)N[C@@H](CC(C)C)C(N)=O)NC(=O)[C@H](CCC(=O)O)NC(=O)CNC(=O)[C@H]([C@@H](C)O)NC(=O)[C@H](CCC(=O)O)NC(=O)[C@@H]2CCCN2C(=O)[C@H](CC(=O)O)NC1=O [Peptide P2-D] (Ac-LQCDPETGECL-NH2; linker 3-10 via X1) , please.
stdout: 0.0083 s⁻¹

stdin: Recorded koff of CC(=O)N[C@H]1CSCC(=O)CSC[C@@H](C(=O)N[C@@H](CC(C)C)C(N)=O)NC(=O)[C@H](CCC(=O)O)NC(=O)CNC(=O)[C@H]([C@@H](C)O)NC(=O)[C@H](CCC(=O)O)NC(=O)[C@@H]2CCCN2C(=O)[C@H](CC(=O)O)NC(=O)[C@H](CC(C)C)NC(=O)[C@H](CCC(N)=O)NC1=O [Peptide P1-B] (Ac-CQLDPETGECL-NH2; linker 1-10 via CH2COCH2) , please.
stdout: 0.0087 s⁻¹

stdin: Recorded koff of CC(=O)N[C@@H](CS)C(=O)N[C@@H](CC(C)C)C(=O)N[C@@H](CCC(N)=O)C(=O)N[C@@H](CC(C)C)C(=O)N[C@@H](CC(=O)O)C(=O)N1CCC[C@H]1C(=O)N[C@@H](CCC(=O)O)C(=O)N[C@H](C(=O)NCC(=O)N[C@@H](CCC(=O)O)C(=O)N[C@@H](CS)C(=O)N[C@@H](CC(C)C)C(N)=O)[C@@H](C)O [Peptide P3] (Ac-CLQLDPETGECL-NH2) , please.
stdout: 0.0049 s⁻¹

stdin: Recorded koff of CC(=O)N[C@@H](CC(C)C)C(=O)N[C@@H](CCC(N)=O)C(=O)N[C@H]1CSCc2cccc(c2)CSC[C@@H](C(=O)N[C@@H](CC(C)C)C(N)=O)NC(=O)[C@H](CCC(=O)O)NC(=O)CNC(=O)[C@H]([C@@H](C)O)NC(=O)[C@H](CCC(=O)O)NC(=O)[C@@H]2CCCN2C(=O)[C@H](CC(=O)O)NC1=O [Peptide P2-C] (Ac-LQCDPETGECL-NH2; linker 3-10 via mXylylene) , please.
stdout: 0.013 s⁻¹

stdin: Recorded koff of CC(=O)N[C@H]1CSCc2cccc(c2)CSC[C@@H](C(=O)N[C@@H](CC(C)C)C(N)=O)NC(=O)[C@H](CCC(=O)O)NC(=O)CNC(=O)[C@H]([C@@H](C)O)NC(=O)[C@H](CCC(=O)O)NC(=O)[C@@H]2CCCN2C(=O)[C@H](CC(=O)O)NC(=O)[C@H](CC(C)C)NC(=O)[C@H](CCC(N)=O)NC1=O [Peptide P1-C] (Ac-CQLDPETGECL-NH2; linker 1-10 via mXylylene) , please.
stdout: 0.0078 s⁻¹
